measured metric: melting point

Q. // query melting point value for entry O=[N+]([O-])C1(Cc2ccccc2)CN(Cc2ccccc2)CCN(Cc2ccccc2)C1
A. 66 to 69 °C

Q. Moving on to CCOc1cc(NC(=O)CCC(=O)c2ccc(OCC)c(OCC)c2)nc(-c2ccccc2)c1
A. 172 to 173 °C

Q. Here is the next compound: Cc1ccc(C(=S)OCSC#N)cc1
A. 55 °C

Q. Also O=C1CC2CSc3sccc3C2=NN1c1ccc(Cl)cc1 (stereo not given) ?
A. 134 to 135 °C

Q. Repeat for the following compound: CCOC(=O)C(CC(=O)c1ccc(OC)cc1)C(=O)OCC
A. 81 to 84 °C

Q. Do the same for CCOC(=O)c1c[nH]c2ccc(OC3CCN(C)CC3)nc12 please
A. 232 °C

Q. Next up: C=CC(C)ONC(=O)c1nc(-c2ccc(Cl)c(OC)c2F)cc(N)c1Cl (stereo not given)
A. 176 to 179 °C

Q. Record: Fc1ccc2sc(CCl)nc2c1
A. 99 to 101 °C

Q. // same read-out, input: O=C(NCC(=O)N1[C@@H](c2ccccc2)CC[C@H]1c1ccccc1)Nc1cccc(C(=O)O)c1
A. 255 °C

Q. Cool, now CCOC(=O)c1ccc(-c2[nH]nc3c2C(=O)c2c(NC(=O)NN4CCN(C)CC4)cccc2-3)s1
A. 249 °C

---

Could you please report measured melting point for the items listed next?

Q. Requested field: melting point. Item: CCOC(=O)c1ncn(-c2cc(C(F)(F)F)ccc2[N+](=O)[O-])c1C
A. 140 °C

Q. Continue with Cc1c(C(C)N(O)C(N)=O)sc2ccccc12 (stereo unspecified)
A. 130 to 132 °C

Q. Field entry: CCCCCCCOC(N)=O
A. 84 °C

Q. What about this compound? N#CCc1nnc(N)s1
A. 163 to 164 °C

Q. Field entry: O=c1cc(-c2ccoc2)c2ccc(Sc3cc(F)cc(-c4ccccc4)c3)cc2o1
A. 122 to 124 °C

Q. Please give the result for ClCc1c(-c2ccccc2)c(-c2ccccc2)nn1-c1ccccc1 too.
A. 122 °C

Q. For COC(=O)N(CC(=O)O)C(=O)c1c(OCC(F)(F)F)ccc2c(C(F)(F)F)c(OC)ccc12 then?
A. 186 to 187 °C

Q. CC(=O)CCCCCCCCc1ccc(O)c(O)c1 , same question.
A. 74 to 76 °C

Q. Request: O=C(/C=C/c1ccccc1Sc1ccc(Cl)cc1)NC1CCC(O)CC1 (stereo unspecified)
A. 86 to 88 °C

Q. Same lookup for C[Si](C)(C)c1cccc(Cl)c1C(=O)NC(c1ccccc1)n1nnc2ccccc21 (stereo unspecified) , please.
A. 184 to 186 °C

Q. Also N#Cc1cnn(-c2ccc(OC(F)(F)F)cc2Cl)c1N , if possible.
A. 115 °C

---

Record form. Attribute: melting point. Fill in for each entry.

Q. Can you share its melting point? I mean this compound: Cc1nc2c3c(c(C(=O)NCCO)cc2n1C)CCC(c1ccccc1)O3 (stereo not given)
A. 228 to 229 °C

Q. Now try CC(C)NCC(O)c1ccc(N)c(C(F)(F)F)c1 (stereo not given) .
A. 136 to 138 °C

Q. And then O=C(Cc1ccc(C(=O)O)cc1)Nc1cccc(/C=C/c2nc(C3CCC3)cs2)c1 , what is it?
A. 262 to 263 °C

Q. And the next one, Brc1ccc2oc3ccc(Br)cc3c2c1 ?
A. 226 °C

Q. Also check Cc1c(F)c(N2CCC(n3ccnn3)CC2)c(F)c2c1c(=O)c(C(=O)O)cn2C1CC1
A. 261 to 263 °C

---

Provide the reported melting point of each item.
Just the number please, in °C, no unit attached.

Q. Name the recorded melting point for CN1C(=O)N(c2cc(Cl)cc(Cl)c2)C(=O)[C@]12CN(C1CC1)C[C@H]2c1ccc(C#N)cc1 (relative stereo) .
A. 216

Q. Okay, and Cc1ncnn1-c1cc(F)ccc1CNC(=O)c1nc2n(c(=O)c1O)CCN2C(C)C ?
A. 212

Q. Could you do the same for CC(O)C(O)c1nc2c(C(F)(F)F)cccc2c(O)c1C(=O)Nc1nccs1 (centres undefined) , please?
A. 275

Q. Next: CCCCCCNc1nc(SC)[nH]c2nccc1-2
A. 118

---

measured metric: melting point

Q. Looking for the measured melting point of CC1(c2ccccc2)Nc2ccc3c(c2N1)C(=O)c1ccccc1C3=O (stereo not given) , can you help?
A. 368 to 371 °C

Q. # repeat for CCOc1cc(C(CC(=O)CC)N2C(=O)c3cccc(NC(C)=O)c3C2=O)ccc1OC (stereo not given)
A. 137 to 139 °C

Q. Same lookup for Cc1ccc(-c2c(Cl)ncn2-c2ccc(S(C)(=O)=O)cc2)cc1Cl , please.
A. 181 to 182 °C

Q. Then this compound: O=c1oc2c(c(O)c1C(c1ccccc1)C1CC1)CCCCCC2CC1CCOC1 (stereo not given)
A. 80 to 84 °C

Q. Follow-up item: COC(=O)c1cc(S(C)(=O)=O)c(Cl)cc1C
A. 151 °C

Q. Here is the next compound: Cc1c2sc3ccccc3nc-2c2c(O)cccc2c1=O
A. 226 to 228 °C

Q. Also, COc1ccc2c(c1)C(=O)CC1C2C(O)CC2(C)C(O)CCC12 (stereo not given) please.
A. 113 to 114 °C

Q. Try the compound COc1ccc(C(=CC(=O)N2CCOCC2)c2ccc(CC(=O)O)cc2)cc1OC
A. 192 to 194 °C

Q. Another compound to check: FC(F)c1ncnc(-c2ccc(Cl)cc2Cl)c1Cl
A. 55 to 56 °C

Q. Now consider Cc1[nH]c(=O)[nH]c1C(=O)C=Cc1ccccc1 .
A. 299 °C

Q. Can you check ClCc1cccc2cc(Br)ccc12 next?
A. 73 to 76 °C

Q. # iterate: COc1cc2c(cc1S(=O)(=O)c1ccc(F)cc1)CCN(C)CC2
A. 129 to 130 °C

Q. Next record, please: N#Cc1cccc(C2=Nc3ccc(C#CC4=CC(=O)CCC4)cc3NC(=O)C2)c1
A. 110 °C

Q. Another: Cc1nc(-c2ccc(F)cc2)n(-c2ccc(S(N)(=O)=O)cc2)n1
A. 220 to 221 °C

Q. Same lookup for Cc1cccc(-c2cc(O)c(SCc3ccccc3)c(=O)o2)c1 , please.
A. 137 to 138 °C

Q. Also need CC(=O)c1ccc(N(C(C)=O)c2ccccc2)cc1 , thanks.
A. 118 to 120 °C

Q. // repeat for COC(=O)CNC(=O)c1cc2cc(Cl)ccc2[nH]1 and report
A. 252 to 254 °C

Q. Record: Nc1c(-c2ccc(-c3ccccc3)cc2)nc2ccc(Cl)cc2c1C(=O)O
A. 244 to 245 °C

Q. Field entry: COc1ccccc1Oc1cccc(CC(=O)O)c1OC
A. 121 to 122 °C

Q. Moving on to the next compound: COC(=O)C1CC2CCC1N(C(=O)OC(C)(C)C)C2 (stereo not given)
A. 44 to 45 °C

Q. For CCc1oc2ccccc2c1C(=O)c1cc(C(C)C)c(OS(=O)(=O)c2ccc(C(=O)O)c(O)c2)c(C(C)C)c1 then?
A. 200 to 201 °C

Q. Same thing, different compound: OCCN1CCC(=C2c3sccc3CCn3ccnc32)CC1
A. 155 °C

Q. Now give it for CC1(O)c2ccccc2CCC1OS(=O)(=O)CC12CCC(CC1=O)C2(C)C (stereo not given) too.
A. 105 °C

Q. Could you do the same for CCCCCOc1cc(C(=O)O)cc([N+](=O)[O-])c1C(=O)c1ccccc1 , please?
A. 163 to 165 °C

Q. Similarly, COc1ccc2[nH]cc(CCNC(=O)C(F)(F)F)c2c1 ?
A. 135 to 136 °C

Q. What would you report for O=C1Nc2ccccc2SC(c2ccccc2)=C1Cl ?
A. 239 to 241 °C

Q. Then COc1cc(C(=O)c2c(N)sc3c2CCN(C(=O)c2ccc(Cl)cc2)C3)ccc1OC(C)C ?
A. 118 to 119 °C

Q. Try the compound COC(=O)C1=C(C)NC(C)=C(C(=O)OCCN2CCN(c3ccccn3)CC2)C1c1cccc([N+](=O)[O-])c1 (stereo not given)
A. 53 to 56 °C

Q. Moving on to the next compound: CCCCc1nc2c(C)cccc2n1Cc1ccc([N+](=O)[O-])cc1
A. 115 to 116 °C

Q. And the next one, CC1(COCc2ccccc2)COC(c2ccc([N+](=O)[O-])cc2)=N1 (stereo not given) ?
A. 65 to 66 °C

Q. What would you report for NC1C(=O)N(CC(O)C(F)(F)F)c2ccccc2-c2ccccc21 (stereo not given) ?
A. 192 to 194 °C

Q. Lookup CCOC(=O)C(C)(C)Oc1ccc(C(=O)c2ccccc2)cc1
A. 82 to 85 °C

Q. What would you report for COc1cc2c(c(OC)c1OC)CCN(c1nc(N)c3cc(OC)c(OC)c(OC)c3n1)C2 ?
A. 193 to 195 °C

Q. For CCCCCCCCCCCCCCCCOc1ccc(OCC(=O)Nc2cccc(CBr)c2)cc1 then?
A. 183 to 186 °C

Q. Subsequent entry: O=C1CCC(N2C(=O)c3ccc(CNCc4cc5ccccc5o4)cc3C2=O)C(=O)N1 (stereo not given)
A. 133 to 135 °C

Q. Field entry: Cc1cc(F)ccc1-c1ccc(S(=O)(=O)N2c3ccccc3CC2C(=O)NCc2ccccc2NCCC(=O)O)cc1 (stereo not given)
A. 118 to 126 °C

Q. Also need CCCN(C)CC(C)N1c2ccccc2Sc2ccc(C(N)=S)cc21 (racemic) , thanks.
A. 204 °C

Q. Same read-out for Cc1ccc(N)c(C(=O)c2ccc(F)cc2)c1 ?
A. 70 to 71.5 °C

Q. For O=C(c1ccccc1)N1CCc2nnc(NN=C3CCCCC3)cc2C1 then?
A. 188 to 191 °C

Q. Try this compound too: CC1(C)OC(=O)Nc2ccc(-c3ccc(N)nc3)cc21
A. 257 to 259 °C

Hello, the source for this data is a melting point compilation (Tetko et al.; mined from patent text by program, amines drawn as free bases though some values may be those of a salt), in case you need it.
